Cited source for all entries: patent US7812035B2

Target: serotonin transporter (UniProt P31645)
Assay: 5-HT uptake inhibition (monoamine transporter antagonism, methods of Gu et al)
Format: cell-based
Details: 1 μM compound
Reported 5-HT uptake (% inhibition @1 μM) values are given for each entry in this list.

SMILES_STR | 5-HT uptake (% inhibition @1 μM) / %
OCC1CCN(CC2(c3ccc(Cl)cc3)CCC2)CC1 | 21
FC(F)(F)c1ccc(OC2CCN(CC3(c4ccc(Cl)cc4)CCC3)CC2)cc1 | 56
FC(F)(F)c1cc(COC2CCN(CC3(c4ccc(Cl)cc4)CCC3)CC2)cc(C(F)(F)F)c1 | 14
FC(F)(F)c1ccc(COC2CCN(CC3(c4ccc(Cl)cc4)CCC3)CC2)cc1 | 9
FC(F)(F)c1ccc(COCC2CCN(CC3(c4ccc(Cl)cc4)CCC3)CC2)cc1 | 87
OC1CCN(CC2(c3ccc(Cl)cc3)CCC2)CC1 | 36
FC(F)(F)c1ccc(OCC2CCN(CC3(c4ccc(Cl)cc4)CCC3)CC2)cc1 | 83

====

Target: norepinephrine transporter (Homo sapiens)
Sequence (P23975 whole entry): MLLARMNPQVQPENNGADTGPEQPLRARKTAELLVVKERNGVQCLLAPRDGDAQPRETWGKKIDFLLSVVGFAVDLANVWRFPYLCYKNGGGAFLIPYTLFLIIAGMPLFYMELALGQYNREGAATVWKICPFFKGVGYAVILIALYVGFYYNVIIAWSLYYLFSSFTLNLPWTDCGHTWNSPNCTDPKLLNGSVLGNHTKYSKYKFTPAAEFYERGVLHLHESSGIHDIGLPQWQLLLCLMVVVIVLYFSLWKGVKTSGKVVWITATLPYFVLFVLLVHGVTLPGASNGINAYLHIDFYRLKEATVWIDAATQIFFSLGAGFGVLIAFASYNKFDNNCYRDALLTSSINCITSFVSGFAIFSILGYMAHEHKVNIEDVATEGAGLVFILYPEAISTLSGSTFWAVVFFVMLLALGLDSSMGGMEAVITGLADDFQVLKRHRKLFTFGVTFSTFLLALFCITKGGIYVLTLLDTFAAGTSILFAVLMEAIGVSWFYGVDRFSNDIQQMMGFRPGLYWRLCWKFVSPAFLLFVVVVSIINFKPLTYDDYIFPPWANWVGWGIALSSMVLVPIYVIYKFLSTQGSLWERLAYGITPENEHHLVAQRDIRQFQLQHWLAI
Experiment: NE uptake inhibition (monoamine transporter antagonism, methods of Galli et al)
Assay type: cell-based
Conditions: read-out: NE uptake (% inhibition @1 μM)
Use MET when the recorded inhibition at 1 µM is no lower than 60%; use NOT MET when it is lower.

SMILES_STR | CAT
FC(F)(F)c1ccc(COC2CCN(CC3(c4ccc(Cl)cc4)CCC3)CC2)cc1 | MET
OC1CCN(CC2(c3ccc(Cl)cc3)CCC2)CC1 | MET
FC(F)(F)c1ccc(OCC2CCN(CC3(c4ccc(Cl)cc4)CCC3)CC2)cc1 | MET
OCC1CCN(CC2(c3ccc(Cl)cc3)CCC2)CC1 | MET
FC(F)(F)c1ccc(OC2CCN(CC3(c4ccc(Cl)cc4)CCC3)CC2)cc1 | NOT MET
